Assay: yeast display, Sf9 membrane polyspecificity reagent, FACS + sequencing; frameworks hold sequencing errors
Measured attribute: polyreactivity (PSR sort gate)

# Sequence, Measured attribute, Recorded result
measured = [
    ("QVQLVESGGGLVQAGGSLRLSCAASGSTLVTNAMGWYRQAPGKERELVAAITFSGGTTYYADSVTGRFTISRDNAKNTVYVQMNSLKPEDTAVYYCAAEIWLEYVGYDYWGQGTQVTVSS", "polyreactivity (PSR sort gate)", "high polyreactivity"),
    ("QVQLVESGGGLVQAGGSLRLSCAASGRIFGRYVMGWYRQAPGKERELVAAITSRDDSTYYADSVKGRFTISRDNAKNTVYLQMTSLKPEDTAVYYCAATWGRGYDYWGQGTQVTVSS", "polyreactivity (PSR sort gate)", "high polyreactivity"),
]

---

Assay: yeast display, Sf9 membrane polyspecificity reagent, FACS + sequencing; frameworks hold sequencing errors

# Sequence, polyreactivity (PSR sort gate)
rows = [
    ("QVQLVESGGGLVQAGGSLRLSCAASGRIITFNPMGWYRQAPGKERELVAAISSRGDGTYYADSVKGRYTISRDNAKNSFYVQMNSLKPEDTAVYYCARYPDDYYDWGYDYWGHGTQVTVSS", "low polyreactivity"),
    ("QVQLVESGGGLVQAGGSLRLSSAASGRIFYRNAMGWCRQAPGKERELVASITSAGRRYYADSVKGRFTISRDNAKNTVYLQMNSLKPEDTAVYYCAVRVAVLLNLYGYWGQGTQVTVSS", "low polyreactivity"),
]

---

Experiment: yeast display, Sf9 membrane polyspecificity reagent, FACS + sequencing; frameworks hold sequencing errors

# Sequence, polyreactivity (PSR sort gate)
records = [
    ("QVQLVESGGGLVQAGGSLRLSCAASGSTFSGYTMGWYRQAPGKERELVASISSGVSTYYADSVKGRFTISRDNAKNTVYLQMNSLKPEDTAVYYCAADSVGDYGYQVYASWGYEDEYWGQGTQVTVSS", "low polyreactivity"),
    ("QVQLVESGGGLVQAGGSLRLSCAASGRIFSRYAMGWYRQAPGKERELVAAITGRGGSTYYADSVKGRFTISRDNAKNTVYLQMNSLKPVDTAVYYCAVANRVTPLFLRYDYWGQGTQVTVSS", "high polyreactivity"),
    ("QLQLVESGGGLVQAGGSLRLSCAASGLILYSYAMGRYRQAPGKERELVADISSGGITNYADSVKGRFTISRDNAKNTVYLQMNSLKPADTAVNYCAADTRPVNYILYEYWGQGTQVTVSS", "low polyreactivity"),
    ("QVQLVESGGGLVQAGGSLRLSCAASGSTFDTNVMGWYRQAPGKERDLVAAIDVSGGSTYYADSVKGRFTISRDNAKNTVYLQMNSLKPVDTAVYYCAAVDGKYGMDYWGQGTQVTVST", "low polyreactivity"),
    ("QVQLVESGGGLVQAGGSLRLSCAASGLIFTGNTMGWSRQAPGKETELVADITWSDGSTYYADSVKGRFTISRDTENNTVYLQMNSLKPEDTAVYYCAADSVLDRPVLYLWPWYLGDYWGQGTQVTVSS", "low polyreactivity"),
    ("QVQLVESGGSLVQAGGSLRLSCAASGRTFGYNGMGWYRQAPGKERELVAAITNDGGNTNYADSVKGRFTISRDNAKNTVYLQMNSLKPEDTAVYYCNADRTQDRNPYTYATFDYWGQGTQVTVSS", "low polyreactivity"),
    ("QVQLVESGGGLVQAGGSLRLSCAASGITFWYYAMGWYRQAPGKERELVAVISRGGSTYYADSVKGRFTISRDNAKNTVYLQMNSLKPEDTAVYYCAARQRWYTYTRQEYDYWGQGTQVTVSS", "high polyreactivity"),
    ("QVQLVESGGGLVQAGGSLRLICAASGRTYHGYAMGWYRQAPGKERELVAAITSSGARTYYADSVKGRFTLSRDNAKKTVYLQMNSLKPEDTAVYYCAVNWLRGMDWGQGTQVTVSS", "high polyreactivity"),
    ("QVQLVESGGGLVQAGGSLRLSCAASGSTFKNNAMGWYRQATGKEREFVAGITRRGTSTYYADSVKGRFTISRDNAKNTVYLQMNSLKPEDTAVYYCAVGVYDYTGTYGYWGQGTQVTVSS", "high polyreactivity"),
    ("QVQLVESGGGLVQAGGSLRLSCAASGLIFRYYAMGWYRQATGKEREFVAAITWRTGSTYYADSVKGRFTISRDNAKNTVYLQMNSLKPEDTAVYYCAARGGRRYDYWGQGTQVTVSS", "high polyreactivity"),
    ("QVQLVESGGGLVQAGGSLRLSCAASGFTFRYYAMGWYRQAPGKERELVAAISYNGGSTYYADSVKGRFTISRDNAKNTVYLQMNSLKPEDTAVYYCAADGGRRFGYWGQGTQVTVSS", "high polyreactivity"),
]

Cited source: the nanobody polyreactivity screen of Harvey et al. (2022)
